B1: ATGL (PNPLA2, patatin-like phospholipase domain-containing protein 2), human, full length / perilipin-5, mouse (mPlin5) (parent)
chain 1: MFPREKTWNISFAGCGFLGVYYVGVASCLREHAPFLVANATHIYGASAGALTATALVTGVCLGEAGAKFIEVSKEARKRFLGPLHPSFNLVKIIRSFLLKVLPADSHEHASGRLGISLTRVSDGENVIISHFNSKDELIQANVCSGFIPVYCGLIPPSLQGVRYVDGGISDNLPLYELKNTITVSPFSGESDICPQDSSTNIHELRVTNTSIQFNLRNLYRLSKALFPPEPLVLREMCKQGYRDGLRFLQRNGLLNRPNPLLALPPARPHGPEDKDQAVESAQAEDYSQLPGEDHILEHLPARLNEALLEACVEPTDLLTTLSNMLPVRLATAMMVPYTLPLESALSFTIRLLEWLPDVPEDIRWMKEQTGSICQYLVMRAKRKLGRHLPSRLPEQVELRRVQSLPSVPLSCAAYREALPGWMRNNLSLGDALAKWEECQRQLLLGLFCTNVAFPPEALRMRAPADPAPAPADPASPQHQLAGPAPLLSTPAPEARPVIGALGL
chain 2: MDQRGEDTTLAPHSRMSGDQTAQDPGSSLGELDQQNVVNRVVALPLVKATCTAVSSAYNSAKDRHPLLGSACRLAEHCVCSVTTCALDHAQPLLEHLQPQLATVNDLACRGLDKLEEKLPFLQQPSDMVVTSAKDTVAKSVTGMVDLAQRGRRWSGELRRSMSQAMDMVLGKSEKLVDRFLPMTEAELAVLAAEAEGPEVGTVEEQRQQQGYFVRLGSLSARLRHLAYEHSLGKLRQSKHRTQEMLAQLQETLELIQHMQRGASPSPTFHPPKTQELWGSWSPCLENGRSHSEVELETLALSRSLTLELQNAVDALAGCVRGLPPSAQAKVAEVQRSVDALQATFADAHCLGDVAPTALAEGRGSVARAHACVDEFLDLVLRAMPLPWLVGPFAPILVEQSEPLINLATCVDEVVGDPDPRWAHMDWPAQKRAWEAESADPGGQEAEPPRGQGKHTMMPELDF

- Variants of: B1
- experimentalDetails: LUMIER: Protein A-ATGL variant and firefly luciferase-partner co-expressed in HEK293T, lysates immunoprecipitated on IgG-coated plates, co-precipitated partner measured as luciferase luminescence
- assayContext: with perilipin-5, mouse (mPlin5), transient co-transfection, IgG-coated LUMITRAC plates, 2 h at 4 °C, three PBS washes, Bright-Glo luciferase reagent, triplicates per assay, two …, parent: 0.15, not graded, scale: log2 fold change of co-immunoprecipitated luminescence relative to wild-type ATGL within each experiment
Threshold -0.05. screen value below it: T. screen value at it or above: F.

- sequenceChange: "chain 1 S158E"
  qualitativeLabel: "F"
- sequenceChange: "chain 1 I70K"
  qualitativeLabel: "T"
- sequenceChange: "chain 1 G189E"
  qualitativeLabel: "T"
- sequenceChange: "chain 1 L178A"
  qualitativeLabel: "T"
- sequenceChange: "chain 1 F348E"
  qualitativeLabel: "F"
- sequenceChange: "chain 1 A453E"
  qualitativeLabel: "F"
- sequenceChange: "chain 1 R95L"
  qualitativeLabel: "T"
- sequenceChange: "chain 1 L62A"
  qualitativeLabel: "T"
- sequenceChange: "chain 1 R163K"
  qualitativeLabel: "T"
- sequenceChange: "chain 1 T41A"
  qualitativeLabel: "F"
- sequenceChange: "chain 1 G59L"
  qualitativeLabel: "T"
- sequenceChange: "chain 1 A434L"
  qualitativeLabel: "F"
- sequenceChange: "chain 1 P156K"
  qualitativeLabel: "T"
- sequenceChange: "chain 1 E314A"
  qualitativeLabel: "F"
- sequenceChange: "chain 1 E368A"
  qualitativeLabel: "F"
- sequenceChange: "chain 1 S87E"
  qualitativeLabel: "T"

Values were extracted from paper PMC10958042.
